- test-summary: in vivo
- Set-up: species or system mice
- condition-info: male, NODSCID 1L2RγKO, mouse, iv, total radioactivity, Seminal uptake

| compound | tissue uptake at 4 h [%ID/g] |
| --- | --- |
| COc1ccc(CCCC(=O)NCC(=O)N[C@@H](CCCCNC(=O)CN2CCN(CC(=O)O)CCN(CC(=O)O)CCN(CC(=O)O)CC2)C(=O)NC[C@H]2CC[C@H](C(=O)N[C@@H](Cc3c4ccccc4cc4ccccc34)C(=O)NCCCC[C@H](NC(=O)N[C@@H](COCC(=O)O)C(=O)O)C(=O)O)CC2)cc1 [177Lu-HTK04028, metal not drawn] | 0.9 |
| COc1ccc(CCCC(=O)NCC(=O)N[C@@H](CCCCNC(=O)CN2CCN(CC(=O)O)CCN(CC(=O)O)CCN(CC(=O)O)CC2)C(=O)NC[C@H]2CC[C@H](C(=O)N[C@@H](Cc3c4ccccc4cc4ccccc34)C(=O)NCCCC[C@H](NC(=O)N[C@@H](CSCC(=O)O)C(=O)O)C(=O)O)CC2)cc1 [177Lu-HTK04048, metal not drawn] | 0.92 |
| O=C(O)CCC[C@H](NC(=O)N[C@@H](CCCCNC(=O)[C@H](Cc1c2ccccc2cc2ccccc12)NC(=O)[C@H]1CC[C@H](CNC(=O)[C@H](CCCCNC(=O)CN2CCN(CC(=O)O)CCN(CC(=O)O)CCN(CC(=O)O)CC2)NC(=O)CNC(=O)CCCc2ccc(Cl)cc2)CC1)C(=O)O)C(=O)O [177Lu-HTK03153, metal not drawn] | 1.2 |

###

- test-summary: in vivo
- Design: species or system mice
- condition-info: male, NODSCID 1L2RγKO, mouse, iv, total radioactivity, Muscle uptake
In this section, each of the compounds is paired with its reported tissue uptake at 72 h.
measurement-type: tissue uptake at 72 h (%ID/g)

| compound | scale-unit | numeric-value |
| --- | --- | --- |
| COc1ccc(CCCC(=O)NCC(=O)N[C@@H](CCCCNC(=O)CN2CCN(CC(=O)O)CCN(CC(=O)O)CCN(CC(=O)O)CC2)C(=O)NC[C@H]2CC[C@H](C(=O)N[C@@H](Cc3c4ccccc4cc4ccccc34)C(=O)NCCCC[C@H](NC(=O)N[C@@H](COCC(=O)O)C(=O)O)C(=O)O)CC2)cc1 [177Lu-HTK04028, metal not drawn] | %ID/g | 0.03 |
| COc1ccc(CCCC(=O)NCC(=O)N[C@@H](CCCCNC(=O)CN2CCN(CC(=O)O)CCN(CC(=O)O)CCN(CC(=O)O)CC2)C(=O)NC[C@H]2CC[C@H](C(=O)N[C@@H](Cc3c4ccccc4cc4ccccc34)C(=O)NCCCC[C@H](NC(=O)N[C@@H](CSCC(=O)O)C(=O)O)C(=O)O)CC2)cc1 [177Lu-HTK04048, metal not drawn] | %ID/g | 0.04 |
| O=C(O)CCC[C@H](NC(=O)N[C@@H](CCCCNC(=O)[C@H](Cc1c2ccccc2cc2ccccc12)NC(=O)[C@H]1CC[C@H](CNC(=O)[C@H](CCCCNC(=O)CN2CCN(CC(=O)O)CCN(CC(=O)O)CCN(CC(=O)O)CC2)NC(=O)CNC(=O)CCCc2ccc(Cl)cc2)CC1)C(=O)O)C(=O)O [177Lu-HTK03153, metal not drawn] | %ID/g | 0.18 |
| O=C(O)CCC[C@H](NC(=O)N[C@@H](CCCCNC(=O)[C@H](Cc1c2ccccc2cc2ccccc12)NC(=O)[C@H]1CC[C@H](CNC(=O)CN2CCN(CC(=O)O)CCN(CC(=O)O)CCN(CC(=O)O)CC2)CC1)C(=O)O)C(=O)O [177Lu-HTK03149, metal not drawn] | %ID/g | 0.02 |
| COc1ccc(CCCC(=O)NCC(=O)N[C@@H](CCCCNC(=O)CN2CCN(CC(=O)O)CCN(CC(=O)O)CCN(CC(=O)O)CC2)C(=O)NC[C@H]2CC[C@H](C(=O)N[C@@H](Cc3c4ccccc4cc4ccccc34)C(=O)NCCCC[C@H](NC(=O)N[C@@H](CCCC(=O)O)C(=O)O)C(=O)O)CC2)cc1 [177Lu-HTK03170, metal not drawn] | %ID/g | 0.02 |

###

- System: PSMA-expressing LNCaP cancer xenografts
- condition-info: mouse, in vivo
The following compounds are shown together with reported Tumor: Muscle ratio values.
measurement-type: Tumor: Muscle ratio

| compound | measured-on | measurement-type | numeric-value |
| --- | --- | --- | --- |
| O=C(O)C[C@H](NC(=O)N[C@@H](CCCCNC(=O)[C@H](Cc1c2ccccc2cc2ccccc12)NC(=O)[C@H]1CC[C@H](CNC(=O)CN2CCN(CC(=O)O)CCN(CC(=O)O)CCN(CC(=O)O)CC2)CC1)C(=O)O)C(=O)O [68Ga-HTK03161, metal not drawn] | PSMA-expressing LNCaP cancer xenografts | Tumor: Muscle ratio | 89.4 |
| O=C(O)CCCCC(NC(=O)N[C@@H](CCCCNC(=O)[C@H](Cc1c2ccccc2cc2ccccc12)NC(=O)[C@H]1CC[C@H](CNC(=O)CN2CCN(CC(=O)O)CCN(CC(=O)O)CCN(CC(=O)O)CC2)CC1)C(=O)O)C(=O)O (single isomer, unassigned) [68Ga-HTK03189A, metal not drawn] | PSMA-expressing LNCaP cancer xenografts | Tumor: Muscle ratio | 16.5 |
| O=C(O)CN1CCN(CC(=O)O)CCN(CC(=O)NC[C@H]2CC[C@H](C(=O)N[C@@H](Cc3c4ccccc4cc4ccccc34)C(=O)NCCCC[C@H](NC(=O)N[C@@H](C[C@H](F)C(=O)O)C(=O)O)C(=O)O)CC2)CCN(CC(=O)O)CC1 [68Ga-HTK04040, metal not drawn] | PSMA-expressing LNCaP cancer xenografts | Tumor: Muscle ratio | 43.2 |
| O=C(O)CN1CCN(CC(=O)O)CCN(CC(=O)NC[C@H]2CC[C@H](C(=O)N[C@@H](Cc3c4ccccc4cc4ccccc34)C(=O)NCCCC[C@H](NC(=O)N[C@@H](C[C@@H](F)C(=O)O)C(=O)O)C(=O)O)CC2)CCN(CC(=O)O)CC1 [68Ga-HTK04033, metal not drawn] | PSMA-expressing LNCaP cancer xenografts | Tumor: Muscle ratio | 221 |
| O=C(O)CCC[C@H](NC(=O)N[C@@H](CCCCNC(=O)[C@H](Cc1c2ccccc2cc2ccccc12)NC(=O)c1ccc(NC(=O)CN2CCN(CC(=O)O)CCN(CC(=O)O)CCN(CC(=O)O)CC2)cc1)C(=O)O)C(=O)O [68Ga-HTK04041, metal not drawn] | PSMA-expressing LNCaP cancer xenografts | Tumor: Muscle ratio | 95.1 |
| O=C(O)COC[C@H](NC(=O)N[C@@H](CCCCNC(=O)[C@H](Cc1c2ccccc2cc2ccccc12)NC(=O)[C@H]1CC[C@H](CNC(=O)CN2CCN(CC(=O)O)CCN(CC(=O)O)CCN(CC(=O)O)CC2)CC1)C(=O)O)C(=O)O [68Ga-HTK03187, metal not drawn] | PSMA-expressing LNCaP cancer xenografts | Tumor: Muscle ratio | 249 |

###

- test-summary: in vivo
- Set-up: species or system mice
- condition-info: male, NODSCID 1L2RγKO, mouse, iv, total radioactivity, Bone uptake
The entries below are paired with their reported tissue uptake at 72 h.

| molecule | tissue uptake at 72 h / %ID/g |
| --- | --- |
| COc1ccc(CCCC(=O)NCC(=O)N[C@@H](CCCCNC(=O)CN2CCN(CC(=O)O)CCN(CC(=O)O)CCN(CC(=O)O)CC2)C(=O)NC[C@H]2CC[C@H](C(=O)N[C@@H](Cc3c4ccccc4cc4ccccc34)C(=O)NCCCC[C@H](NC(=O)N[C@@H](COCC(=O)O)C(=O)O)C(=O)O)CC2)cc1 [177Lu-HTK04028, metal not drawn] | 0.05 |
| COc1ccc(CCCC(=O)NCC(=O)N[C@@H](CCCCNC(=O)CN2CCN(CC(=O)O)CCN(CC(=O)O)CCN(CC(=O)O)CC2)C(=O)NC[C@H]2CC[C@H](C(=O)N[C@@H](Cc3c4ccccc4cc4ccccc34)C(=O)NCCCC[C@H](NC(=O)N[C@@H](CCCC(=O)O)C(=O)O)C(=O)O)CC2)cc1 [177Lu-HTK03170, metal not drawn] | 0.03 |
| COc1ccc(CCCC(=O)NCC(=O)N[C@@H](CCCCNC(=O)CN2CCN(CC(=O)O)CCN(CC(=O)O)CCN(CC(=O)O)CC2)C(=O)NC[C@H]2CC[C@H](C(=O)N[C@@H](Cc3c4ccccc4cc4ccccc34)C(=O)NCCCC[C@H](NC(=O)N[C@@H](CSCC(=O)O)C(=O)O)C(=O)O)CC2)cc1 [177Lu-HTK04048, metal not drawn] | 0.07 |
| O=C(O)CCC[C@H](NC(=O)N[C@@H](CCCCNC(=O)[C@H](Cc1c2ccccc2cc2ccccc12)NC(=O)[C@H]1CC[C@H](CNC(=O)CN2CCN(CC(=O)O)CCN(CC(=O)O)CCN(CC(=O)O)CC2)CC1)C(=O)O)C(=O)O [177Lu-HTK03149, metal not drawn] | 0.03 |
| O=C(O)CCC[C@H](NC(=O)N[C@@H](CCCCNC(=O)[C@H](Cc1c2ccccc2cc2ccccc12)NC(=O)[C@H]1CC[C@H](CNC(=O)[C@H](CCCCNC(=O)CN2CCN(CC(=O)O)CCN(CC(=O)O)CCN(CC(=O)O)CC2)NC(=O)CNC(=O)CCCc2ccc(Cl)cc2)CC1)C(=O)O)C(=O)O [177Lu-HTK03153, metal not drawn] | 0.16 |
